Target: T1, PUF4 RNA-binding domain (Saccharomyces cerevisiae, UniProt P25339 537-888)
T1 sequence: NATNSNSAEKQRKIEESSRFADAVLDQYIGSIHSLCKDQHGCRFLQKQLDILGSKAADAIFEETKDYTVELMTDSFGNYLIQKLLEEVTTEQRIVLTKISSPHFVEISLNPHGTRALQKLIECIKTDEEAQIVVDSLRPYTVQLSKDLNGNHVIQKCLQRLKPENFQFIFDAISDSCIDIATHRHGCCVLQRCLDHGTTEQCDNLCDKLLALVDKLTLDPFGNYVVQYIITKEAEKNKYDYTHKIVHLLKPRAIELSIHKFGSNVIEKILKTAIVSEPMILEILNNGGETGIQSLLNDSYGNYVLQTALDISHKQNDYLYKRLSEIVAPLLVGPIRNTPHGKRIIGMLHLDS
Test: Mg; RNA-MaP; 20 mM Na-HEPES pH 7.4, 30 mM KOAc, 0.75 mM MgCl2, 0.1% Tween-20, 5% glycerol, 0.1 mg/mL BSA, 2 mM DTT; 25 C; 0.0125-409.6 nM protein
Details: tags: N-His6-TEV cleaved; C-SNAP kept, Cy3B-labelled; label: tethered on chip by stalled RNA polymerase
Listed next: entries and their corresponding pKd.
pKd is a log-scale quantity: -log10 of the concentration expressed in molar.

Known results for binders:
[[record]]
binder = "Ic_S4_P4E.1_K4.1_C4.1_H4.1_A4.1_[A6C]_[T7A]_F4.1_[T8A]_[A9T]_T4.1 (ssRNA) RNA: UUUGACAACUGAUCGUUCUUUCUUGUAUCAAUUUCUUUCUCGAUCAGUUGUCUUU"
assay_endpoint = "pKd"
recorded_result = 7.30

[[record]]
binder = "UCUCUUAUUAUAUUAUUAUCUCUCUU (ssRNA) [Id_ii_S1_P5E.3_K5.2_C5.2_[C-2A]_H5.2_A5.1_F5.1_T5.2_[A12C]]"
assay_endpoint = "pKd"
recorded_result = 7.20


The record that follows has no pKd shown yet.
Suppose we examine the binder Ic_S4_P4E.1_K4.1_C4.1_H4.1_A4.1_[A6T]_[T7A]_F4.1_[T8G]_[A9C]_T4.1 (ssRNA) RNA: UUUGACAACUGAUCGUUCUUUCUUGUAUUAGCUUCUUUCUCGAUCAGUUGUCUUU ; what pKd value has been reported?
6.10
